Reference for the values: paper doi:10.1101/2022.03.30.486445

# tested-target: T1, His6-EB1-CyPet (human, UniProt Q15691 1-268)
# T1 sequence: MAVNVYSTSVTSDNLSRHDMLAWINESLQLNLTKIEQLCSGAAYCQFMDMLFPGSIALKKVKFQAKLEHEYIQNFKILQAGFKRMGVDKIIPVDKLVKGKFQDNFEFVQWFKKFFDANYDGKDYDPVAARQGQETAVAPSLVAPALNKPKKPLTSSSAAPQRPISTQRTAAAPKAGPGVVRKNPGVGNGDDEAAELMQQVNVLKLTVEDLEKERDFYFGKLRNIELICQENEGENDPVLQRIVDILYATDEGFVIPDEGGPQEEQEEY
# assay-procedure: FRET or BRET

binder | binding result
YPet-Kif18B(605-828)-His6 (domain or fragment) TRTMARRLSGPLHTLGIPPGPNCTPAQGSRWPMEKKRRRPSALEADSPMAPKRGTKRQRQSFLPCLRRGSLPDTQPSQGPSTPKGERASSPCHSPRVCPATVIKSRVPLGPSAMQNCSTPLALPTRDLNATFDLSEEPPSKPSFHECIGWDKIPQELSRLDQPFIPRAPVPLFTMKGPKPTSSLPGTSACKKKRVASSSVSHGRSRIARLPSSTLKRPAGPLVL | binds
YPet-Kif18B(708-828)-His6 (domain or fragment) KSRVPLGPSAMQNCSTPLALPTRDLNATFDLSEEPPSKPSFHECIGWDKIPQELSRLDQPFIPRAPVPLFTMKGPKPTSSLPGTSACKKKRVASSSVSHGRSRIARLPSSTLKRPAGPLVL | binds
